Reported values of activity at 5 µM for individual entries
- target: SIRT1 (Homo sapiens)
- Construct: endogenous in cells; host or cells: SH-SY5Y
- Sequence (Q96EB6 1-747): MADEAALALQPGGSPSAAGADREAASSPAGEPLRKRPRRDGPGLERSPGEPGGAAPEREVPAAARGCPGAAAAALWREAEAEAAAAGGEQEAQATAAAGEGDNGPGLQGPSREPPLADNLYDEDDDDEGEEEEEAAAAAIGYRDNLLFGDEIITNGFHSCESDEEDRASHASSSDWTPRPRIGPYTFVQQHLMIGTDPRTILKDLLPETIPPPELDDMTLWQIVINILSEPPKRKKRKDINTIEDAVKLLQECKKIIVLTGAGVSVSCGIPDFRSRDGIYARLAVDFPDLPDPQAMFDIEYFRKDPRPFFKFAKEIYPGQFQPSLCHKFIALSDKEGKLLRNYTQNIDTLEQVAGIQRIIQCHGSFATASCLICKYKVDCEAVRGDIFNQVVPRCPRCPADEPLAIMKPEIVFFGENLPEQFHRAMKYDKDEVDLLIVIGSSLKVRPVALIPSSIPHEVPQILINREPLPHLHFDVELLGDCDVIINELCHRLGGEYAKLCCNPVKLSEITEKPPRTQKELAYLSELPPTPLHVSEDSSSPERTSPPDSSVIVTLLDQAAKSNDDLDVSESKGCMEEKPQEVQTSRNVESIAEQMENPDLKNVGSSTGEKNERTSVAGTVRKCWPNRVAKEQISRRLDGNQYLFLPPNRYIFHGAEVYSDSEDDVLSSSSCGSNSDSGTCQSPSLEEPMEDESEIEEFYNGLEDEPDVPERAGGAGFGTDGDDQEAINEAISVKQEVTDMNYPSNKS
- experimental_details: SIRT1 deacetylase activity in SH-SY5Y cell lysate
- Format: cell-based
- reported_conditions: 5 μM pretreatment 3 h, then 50 μM 6-OHDA 24 h, relative to control
reported_property: activity at 5 µM (%)

compound: Cc1ccc(OCc2cn(-c3ccc(S(=O)(=O)NCCc4ccccc4)cc3)nn2)cc1
reported_property: activity at 5 µM
unit: %
result_number: 91.9
--
compound: Cc1ccccc1OCc1cn(-c2ccc(S(=O)(=O)N3CCc4ccccc4C3)cc2)nn1
reported_property: activity at 5 µM
unit: %
result_number: 91.1
--
compound: Cc1ccccc1OCc1cn(-c2ccc(S(=O)(=O)NCCc3ccccc3)cc2)nn1
reported_property: activity at 5 µM
unit: %
result_number: 93.7
--
compound: O=Cc1ccc(OCc2cn(-c3ccc(S(=O)(=O)NCCc4ccccc4)cc3)nn2)cc1
reported_property: activity at 5 µM
unit: %
result_number: 92.5
--
compound: O=Cc1ccc(OCc2cn(-c3ccc(S(=O)(=O)N4CCc5ccccc5C4)cc3)nn2)cc1
reported_property: activity at 5 µM
unit: %
result_number: 94.3
--
compound: Oc1ccc(/C=C/c2cc(O)cc(O)c2)cc1 [Resveratrol, reference compound]
reported_property: activity at 5 µM
unit: %
result_number: 92.6
--
compound: O=[N+]([O-])c1ccc(OCc2cn(-c3ccc(S(=O)(=O)NCCc4ccccc4)cc3)nn2)cc1
reported_property: activity at 5 µM
unit: %
result_number: 92.9
